Target: SIRT3 (Homo sapiens, UniProt Q9NTG7)
Construct: purchased Cayman Chemical
Sequence (Q9NTG7 1-399): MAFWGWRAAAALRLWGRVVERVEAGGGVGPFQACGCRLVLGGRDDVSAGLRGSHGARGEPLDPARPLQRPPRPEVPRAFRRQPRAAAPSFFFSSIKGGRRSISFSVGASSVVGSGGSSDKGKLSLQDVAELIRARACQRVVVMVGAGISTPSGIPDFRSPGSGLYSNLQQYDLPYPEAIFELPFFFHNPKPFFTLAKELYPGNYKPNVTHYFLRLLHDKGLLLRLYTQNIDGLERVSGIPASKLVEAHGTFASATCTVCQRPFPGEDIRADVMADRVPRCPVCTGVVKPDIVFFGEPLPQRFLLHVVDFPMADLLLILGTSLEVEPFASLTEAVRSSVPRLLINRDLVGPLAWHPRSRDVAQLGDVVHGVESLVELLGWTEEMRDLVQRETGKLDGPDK
Assay: Sirtuin deacetylase enzyme activity assay (Cayman Chemical), compound screen
Type: biochemical
Details: compound at 50 μM; Z-score of change in fluorescent signal; + increase, − decrease
Property label: SIRT3 (change in sirtuin deacetylase activity, Z-score class)

Compound	Assay target	Recorded measurement
COc1cccc(CN2C(=O)c3cccnc3N(C)C2C(F)C(C)c2cnc3ccccc3c2)c1 (centres unmarked)	SIRT3 (Homo sapiens, UniProt Q9NTG7)	+++ (Z-score ≧ 3 = +++)
CC(c1cnc2ccccc2c1)C(F)C1N(Cc2ccccc2)C(=O)c2cccnc2N1C (centres unmarked)	SIRT3 (Homo sapiens, UniProt Q9NTG7)	+++ (Z-score ≧ 3 = +++)
CC(c1ccccc1F)C(O)CNc1ccc(O)nc1 (centres unmarked)	SIRT3 (Homo sapiens, UniProt Q9NTG7)	+++ (Z-score ≧ 3 = +++)

----------
Target: SIRT6 (Homo sapiens)
Construct: purchased Cayman Chemical
Sequence (Q8N6T7 whole entry): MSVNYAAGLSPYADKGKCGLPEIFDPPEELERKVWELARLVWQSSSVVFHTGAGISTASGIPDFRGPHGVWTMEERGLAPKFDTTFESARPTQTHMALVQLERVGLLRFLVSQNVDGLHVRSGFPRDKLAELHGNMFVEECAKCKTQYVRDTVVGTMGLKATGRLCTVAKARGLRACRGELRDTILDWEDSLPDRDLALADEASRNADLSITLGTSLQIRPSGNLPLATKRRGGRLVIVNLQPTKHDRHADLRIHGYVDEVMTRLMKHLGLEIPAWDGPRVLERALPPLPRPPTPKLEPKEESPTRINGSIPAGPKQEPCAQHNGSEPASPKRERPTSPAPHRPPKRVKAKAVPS
Assay: Sirtuin deacetylase enzyme activity assay (Cayman Chemical), compound screen
Format: biochemical
Conditions: compound at 50 μM; Z-score of change in fluorescent signal; + increase, − decrease
Property label: SIRT6 (change in sirtuin deacetylase activity, Z-score class)

Molecule	Recorded measurement
CC(c1cnc2ccccc2c1)C(F)C1N(Cc2ccccc2)C(=O)c2cccnc2N1C (stereo not drawn)	+++ (Z-score ≧ 3 = +++)
CNC(=O)c1cccc(CN(CCC(C)C(C)C)S(=O)(=O)c2c(C)noc2C)c1 (stereo not drawn)	+++ (Z-score ≧ 3 = +++)

----------
Experiment: Tetrazolium-based cell viability assay (cytotoxicity)
Conditions: human
Property label: CC50 at 96 h

Illustrative cases are given below, each with its answer.
Compound	CC50 at 96 h
CC(c1ccnn1C)C(CN1CCN(C)CC1)Oc1ccc(C#N)cn1 (centres unmarked)	> 50 µM
CC(c1ccncc1)C(O)Cn1cc(-c2cc(Cl)cnc2N)nn1 (centres unmarked)	> 50 µM

IN: Requested read-out: CC50 at 96 h. Entry: CC(c1ccc2nccnc2c1)c1cnc(N2CCc3ccccc3C2)s1 (centres unmarked)
OUT: > 50 µM

IN: Requested read-out: CC50 at 96 h. Entry: COc1ccc2[nH]cc(C(C)CCNc3cccnc3)c2c1 (centres unmarked)
OUT: > 50 µM

IN: Requested read-out: CC50 at 96 h. Entry: COc1ccccc1C1C(=O)N(C(C)C)CC1O (centres unmarked)
OUT: > 50 µM

IN: Requested read-out: CC50 at 96 h. Entry: CCCN1CC(C(C)c2ccccc2OC)N(c2cccnc2)C1=O (centres unmarked)
OUT: > 50 µM

IN: Requested read-out: CC50 at 96 h. Entry: Cc1ccccc1C(C)C(CO)NC(=O)c1cn(C)cn1 (centres unmarked)
OUT: > 50 µM

IN: Requested read-out: CC50 at 96 h. Entry: CCOc1cc(C(C)C)n(C(CNc2cnc3ccccc3c2)C(C)c2cccnc2C)n1 (centres unmarked)
OUT: > 50 µM

----------
Test system: human cytomegalovirus (HCMV) AD169 strain
Test: Antiviral activity against HCMV in MRC5 fibroblasts (virus yield, fluorescent focus assay)
Assay type: cell-based
Conditions: Human betaherpesvirus 5, HCMV AD169, 1 infectious unit/cell, treated 2 h after infection, virus in medium at 96 h
The entries below come with measured IC50 values attached.
Dear colleague, please return just the value in µM, with no unit written.

Illustrative cases are given below, each with its answer.
Compound	IC50 / µM
CC(c1cnc2ccccc2c1)C(F)C1N(Cc2ccccc2)C(=O)c2cccnc2N1C (stereo not shown)	1.74
Cc1ccc(C(C)C(CN2CCN(C)CC2)Oc2cnccn2)cn1 (stereo not shown)	30.2
CC(C)c1cc(N)n(C(C(=O)O)C(C)c2ccccc2Cl)n1 (stereo not shown)	25.5

Now turn to the next compound.
IN: Requested read-out: IC50. Entry: COc1ccc2[nH]cc(C(C)CCNc3cccnc3)c2c1 (stereo not shown)
OUT: 17.4

----------
Tested on: human cytomegalovirus (HCMV) AD169 strain
Assay: Antiviral activity against HCMV in MRC5 fibroblasts (virus yield, fluorescent focus assay)
Assay type: cell-based
Details: Human betaherpesvirus 5, HCMV AD169, 1 infectious unit/cell, treated 2 h after infection, virus in medium at 96 h
Property label: pIC50
Give only the number. pIC50 is defined as minus log10 of concentration in molar units.

Illustrative cases are given below, each with its answer.
Compound	pIC50
Cc1cc(-c2ccccc2)nn1C1CN(Cc2cccc(C(F)(F)F)c2)C(=O)C1C(C)C (centres unmarked)	5.07
CC(c1ccccc1Cl)C1CN(C2CCC(O)CC2)S(=O)(=O)c2c(F)cccc2O1 (centres unmarked)	5.63
CCN1CC(C(C)c2ccc(C)nc2)Oc2ccc(C(F)(F)F)cc2C1=O (centres unmarked)	4.73
COc1cccc(C(C)C(O)Cn2cc(-c3cc(Cl)cnc3N)nn2)c1 (centres unmarked)	4.58
CC(c1ccncc1)C(O)Cn1cc(-c2cc(Cl)cnc2N)nn1 (centres unmarked)	5.01

Now turn to the next compound.
IN: Requested read-out: pIC50. Entry: CNC(=O)c1cccc(CN(CCC(C)C(C)C)S(=O)(=O)c2cn(C)cn2)c1 (centres unmarked)
OUT: 4.87

----------
Target: SIRT3 (Homo sapiens, UniProt Q9NTG7)
Construct: purchased Cayman Chemical
Test: Sirtuin deacetylase enzyme activity assay (Cayman Chemical), compound screen
Type: biochemical
Settings: compound at 50 μM; Z-score of change in fluorescent signal; + increase, − decrease
Property label: SIRT3 (change in sirtuin deacetylase activity, Z-score class)

Compound	Recorded measurement
CCOc1cc(C)n(C(CNc2cnc3ccccc3c2)C(C)c2cccnc2C)n1 (centres unmarked)	+++ (Z-score ≧ 3 = +++)
CCOc1cc(C(C)C)n(C(CNc2cnc3ccccc3c2)C(C)c2cccnc2C)n1 (centres unmarked)	+++ (Z-score ≧ 3 = +++)

----------
Target: SIRT2 (Homo sapiens)
Construct: purchased Cayman Chemical
Sequence (Q8IXJ6 whole entry): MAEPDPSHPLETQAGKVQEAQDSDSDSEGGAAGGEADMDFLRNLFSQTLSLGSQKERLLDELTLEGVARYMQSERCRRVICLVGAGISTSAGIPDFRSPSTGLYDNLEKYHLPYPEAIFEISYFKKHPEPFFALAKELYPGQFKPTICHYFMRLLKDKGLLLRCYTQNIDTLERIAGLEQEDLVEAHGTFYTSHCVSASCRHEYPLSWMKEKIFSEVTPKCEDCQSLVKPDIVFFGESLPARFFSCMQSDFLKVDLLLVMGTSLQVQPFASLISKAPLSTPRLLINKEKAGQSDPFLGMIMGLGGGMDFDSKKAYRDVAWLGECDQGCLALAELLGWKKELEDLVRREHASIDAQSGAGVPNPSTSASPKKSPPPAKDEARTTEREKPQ
Assay: Sirtuin deacetylase enzyme activity assay (Cayman Chemical), compound screen
Format: biochemical
Details: compound at 50 μM; Z-score of change in fluorescent signal; + increase, − decrease
From the text: Sirtuins have been identified as innate viral restriction factors and it has been previously shown that drugs that modulate the activity of these enzymes block the production of multiple viruses in culture (see, e.g., WO 2012/106509). Sirtuins are NAD-dependent enzymes that regulate the activity of target proteins by post-translational modifications and thereby control key cellular events (see, e.g., Haigis and Sinclair (2010) Ann Rev Pathol Mech Dis 5:253-95). […]
Property label: SIRT2 (change in sirtuin deacetylase activity, Z-score class)

Compound	Recorded measurement
Cc1nn(C2CN(CCn3ccnc3)C(=O)C2c2ccccc2)c(C)c1C (stereo not drawn)	−−− (Z-score ≦ −3 = −−−)
CC(c1ccncc1)c1cnc(N2CCc3ccccc3C2)s1 (stereo not drawn)	−−− (Z-score ≦ −3 = −−−)
CCN1CC(C(C)c2ccc(C)nc2)Oc2ccc(C(F)(F)F)cc2C1=O (stereo not drawn)	+++ (Z-score ≧ 3 = +++)
Cc1ccccc1C(C)C(CO)NC(=O)c1cn(C)cn1 (stereo not drawn)	−−− (Z-score ≦ −3 = −−−)
CC(c1cnc2ccccc2c1)C(F)C1N(Cc2ccccc2)C(=O)c2cccnc2N1C (stereo not drawn)	+++ (Z-score ≧ 3 = +++)

IN: Requested read-out: SIRT2 (change in sirtuin deacetylase activity, Z-score class). Entry: COc1cccc(CN2C(=O)c3cccnc3N(C)C2C(F)C(C)c2cnc3ccccc3c2)c1 (stereo not drawn)
OUT: +++ (Z-score ≧ 3 = +++)

IN: Requested read-out: SIRT2 (change in sirtuin deacetylase activity, Z-score class). Entry: COc1ccc2[nH]cc(C(C)CCNc3cccnc3)c2c1 (stereo not drawn)
OUT: +++ (Z-score ≧ 3 = +++)

IN: Requested read-out: SIRT2 (change in sirtuin deacetylase activity, Z-score class). Entry: CC(CCNc1cccnc1)c1c[nH]c2ccccc12 (stereo not drawn)
OUT: +++ (Z-score ≧ 3 = +++)

IN: Requested read-out: SIRT2 (change in sirtuin deacetylase activity, Z-score class). Entry: COc1ccccc1C1C(=O)N(C(C)C)CC1O (stereo not drawn)
OUT: +++ (Z-score ≧ 3 = +++)

----------
Test: Tetrazolium-based cell viability assay (cytotoxicity)
Conditions: human
Property label: CC50 at 96 h

Illustrative cases are given below, each with its answer.
Compound	CC50 at 96 h
CC(c1ccccc1F)C(O)CNc1ccc(O)nc1 (stereo not drawn)	> 50 µM
CC(CCNc1cccnc1)c1c[nH]c2ccccc12 (stereo not drawn)	> 50 µM
COc1ccccc1C(C)C(F)CNc1cnc2ccccc2c1 (stereo not drawn)	> 50 µM

IN: Requested read-out: CC50 at 96 h. Entry: COc1cccc(CN2C(=O)c3cccnc3N(C)C2C(F)C(C)c2cnc3ccccc3c2)c1 (stereo not drawn)
OUT: 25 to 50 µM

IN: Requested read-out: CC50 at 96 h. Entry: Cc1ccc(C(C)C(CN2CCN(C)CC2)Oc2cnccn2)cn1 (stereo not drawn)
OUT: > 50 µM

IN: Requested read-out: CC50 at 96 h. Entry: COc1cccc(C(C)C(O)Cn2cc(-c3cc(Cl)cnc3N)nn2)c1 (stereo not drawn)
OUT: > 50 µM

IN: Requested read-out: CC50 at 96 h. Entry: CC(c1ccc(F)cc1)C(O)Cn1cc(-c2cc(Cl)cnc2N)nn1 (stereo not drawn)
OUT: > 50 µM

IN: Requested read-out: CC50 at 96 h. Entry: CC(c1ccncc1)c1cnc(N2CCc3ccccc3C2)s1 (stereo not drawn)
OUT: > 50 µM

IN: Requested read-out: CC50 at 96 h. Entry: CC(c1cnc2ccccc2c1)C(F)CNc1cnc2ccccc2c1 (stereo not drawn)
OUT: > 50 µM
